Value source: the supplement of paper PMC10567573

B1: ZNF8 (parent)
chain: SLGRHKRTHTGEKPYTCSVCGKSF

Variants of: B1
test: protein stability index of a GFP-peptide fusion (GPS, HEK-293T) (PSI 1-6); higher = more stable;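 note: lentivirally expressed fusions sorted by FACS into six bins by GFP to DsRed ratio, PSI derived from sequencing read proportions per bin multiplied by bin number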
experimentalSetup: c terminus: a fixed tail appended
measuredMetric: protein stability index
Enter a number only.

Request: Hello, please tell me recorded protein stability index for this one: "S23T"
Result: 3.32

Request: Hello, please tell me recorded protein stability index for this one: "G11H"
Result: 3.29

Request: Hello, please tell me recorded protein stability index for this one: "C20H"
Result: 2.79

Request: Hello, please tell me recorded protein stability index for this one: "G11C"
Result: 2.77

Request: Hello, please tell me recorded protein stability index for this one: "G3N"
Result: 2.21

Request: Hello, please tell me recorded protein stability index for this one: "V19K"
Result: 2.93

Request: Hello, please tell me recorded protein stability index for this one: "K13A"
Result: 3.72

Request: Hello, please tell me recorded protein stability index for this one: "H5Y"
Result: 2.72

Request: Hello, please tell me recorded protein stability index for this one: "S1P"
Result: 2.72

Request: Hello, please tell me recorded protein stability index for this one: "S18N"
Result: 2.02

Request: Hello, please tell me recorded protein stability index for this one: "T16N"
Result: 2.97

Request: Hello, please tell me recorded protein stability index for this one: "C17F"
Result: 2.4

Request: Hello, please tell me recorded protein stability index for this one: "R7S"
Result: 3.34

Request: Hello, please tell me recorded protein stability index for this one: "K6T"
Result: 2.97

Request: Hello, please tell me recorded protein stability index for this one: "R4Q"
Result: 2.2

Request: Hello, please tell me recorded protein stability index for this one: "H5V"
Result: 2.54

Request: Hello, please tell me recorded protein stability index for this one: "R7P"
Result: 2.98

Request: Hello, please tell me recorded protein stability index for this one: "G11D"
Result: 3.24

Request: Hello, please tell me recorded protein stability index for this one: "P14K"
Result: 2.83

Request: Hello, please tell me recorded protein stability index for this one: "T16L"
Result: 2.25

Request: Hello, please tell me recorded protein stability index for this one: "S23H"
Result: 3.12

Request: Hello, please tell me recorded protein stability index for this one: "K6G"
Result: 2.33

Request: Hello, please tell me recorded protein stability index for this one: "T8L"
Result: 2.61

Request: Hello, please tell me recorded protein stability index for this one: "T8G"
Result: 2.68

Request: Hello, please tell me recorded protein stability index for this one: "G21L"
Result: 1.9

Request: Hello, please tell me recorded protein stability index for this one: "Y15L"
Result: 2.44

Request: Hello, please tell me recorded protein stability index for this one: "S1C"
Result: 3.6

Request: Hello, please tell me recorded protein stability index for this one: "G3K"
Result: 4.65

Request: Hello, please tell me recorded protein stability index for this one: "S18Q"
Result: 3.16

Request: Hello, please tell me recorded protein stability index for this one: "Y15T"
Result: 2.3

Request: Hello, please tell me recorded protein stability index for this one: "H9L"
Result: 2.18

Request: Hello, please tell me recorded protein stability index for this one: "T10H"
Result: 2.98

Request: Hello, please tell me recorded protein stability index for this one: "G21E"
Result: 2.1

Request: Hello, please tell me recorded protein stability index for this one: "R7N"
Result: 3.38

Request: Hello, please tell me recorded protein stability index for this one: "L2E"
Result: 2.8

Request: Hello, please tell me recorded protein stability index for this one: "L2G"
Result: 2.95
